assay_info: Drug level in New Zealand white rabbit epiphyseal plate assessed as [14C]dalbavancin level per gram of tissue at 20 mg/kg, iv after 12 hrs by autoradioluminography
Assay type: ADME, organism-based, Oryctolagus cuniculus
Parameters: dose 20 mg/kg, route intravenous
condition_description: in vivo
attribute_measured: Drug uptake
Dear colleague, please send the value followed by its unit.

Q. // query Drug uptake value for entry CN[C@H]1C(=O)N[C@@H]2Cc3ccc(cc3)Oc3cc4cc(c3O[C@@H]3O[C@H](C(=O)O)[C@@H](O)[C@H](O)[C@H]3NC(=O)CCCCCCCCC(C)C)Oc3ccc(cc3Cl)[C@@H](O)[C@@H]3NC(=O)[C@H](NC(=O)[C@@H]4NC(=O)[C@@H](NC2=O)c2cc(cc(O)c2Cl)Oc2cc1ccc2O)c1ccc(O)c(c1)-c1c(O[C@H]2O[C@H](CO)[C@@H](O)[C@H](O)[C@@H]2O)cc(O)cc1[C@@H](C(=O)NCCCN(C)C)NC3=O
A. 21.9 µg/g

###

assay_info: Drug level in New Zealand white rabbit meniscus assessed as [14C]dalbavancin level per gram of tissue at 20 mg/kg, iv after 120 hrs by autoradioluminography
Type: ADME, organism-based, Oryctolagus cuniculus
Set-up: dose 20 mg/kg, route intravenous
condition_description: in vivo
attribute_measured: Drug uptake (µg/g)
Your answer is read as µg/g, so omit the unit and give the number.

Q. // query Drug uptake value for entry CN[C@H]1C(=O)N[C@@H]2Cc3ccc(cc3)Oc3cc4cc(c3O[C@@H]3O[C@H](C(=O)O)[C@@H](O)[C@H](O)[C@H]3NC(=O)CCCCCCCCC(C)C)Oc3ccc(cc3Cl)[C@@H](O)[C@@H]3NC(=O)[C@H](NC(=O)[C@@H]4NC(=O)[C@@H](NC2=O)c2cc(cc(O)c2Cl)Oc2cc1ccc2O)c1ccc(O)c(c1)-c1c(O[C@H]2O[C@H](CO)[C@@H](O)[C@H](O)[C@@H]2O)cc(O)cc1[C@@H](C(=O)NCCCN(C)C)NC3=O [DALBAVANCIN]
A. 4.39

###

assay_info: Drug level in New Zealand white rabbit synovial space assessed as [14C]dalbavancin level per gram of tissue at 20 mg/kg, iv after 12 hrs by autoradioluminography
Type: ADME, organism-based, Oryctolagus cuniculus
Design: dose 20 mg/kg, route intravenous
condition_description: in vivo
attribute_measured: Drug uptake (µg/g)
Your answer is read as µg/g, so omit the unit and give the number.

Q. // query Drug uptake value for entry CN[C@H]1C(=O)N[C@@H]2Cc3ccc(cc3)Oc3cc4cc(c3O[C@@H]3O[C@H](C(=O)O)[C@@H](O)[C@H](O)[C@H]3NC(=O)CCCCCCCCC(C)C)Oc3ccc(cc3Cl)[C@@H](O)[C@@H]3NC(=O)[C@H](NC(=O)[C@@H]4NC(=O)[C@@H](NC2=O)c2cc(cc(O)c2Cl)Oc2cc1ccc2O)c1ccc(O)c(c1)-c1c(O[C@H]2O[C@H](CO)[C@@H](O)[C@H](O)[C@@H]2O)cc(O)cc1[C@@H](C(=O)NCCCN(C)C)NC3=O
A. 6.56

###

assay_info: Drug level in New Zealand white rabbit skeletal muscle assessed as [14C]dalbavancin level per gram of tissue at 20 mg/kg, iv after 168 hrs by autoradioluminography
Assay type: ADME, organism-based, Oryctolagus cuniculus
Design: dose 20 mg/kg, route intravenous
condition_description: in vivo
attribute_measured: Drug uptake
Dear colleague, please send the value followed by its unit.

Q. // query Drug uptake value for entry CN[C@H]1C(=O)N[C@@H]2Cc3ccc(cc3)Oc3cc4cc(c3O[C@@H]3O[C@H](C(=O)O)[C@@H](O)[C@H](O)[C@H]3NC(=O)CCCCCCCCC(C)C)Oc3ccc(cc3Cl)[C@@H](O)[C@@H]3NC(=O)[C@H](NC(=O)[C@@H]4NC(=O)[C@@H](NC2=O)c2cc(cc(O)c2Cl)Oc2cc1ccc2O)c1ccc(O)c(c1)-c1c(O[C@H]2O[C@H](CO)[C@@H](O)[C@H](O)[C@@H]2O)cc(O)cc1[C@@H](C(=O)NCCCN(C)C)NC3=O
A. 0.94 µg/g
